Target: BACE1 (Homo sapiens)
Construct: recombinant BACE1 protein in a final concentration of 0.04 μg/ml
Assay: BACE1 biochemical FRET based assay
Conditions: recombinant BACE1 0.04 μg/ml, 20 μM substrate, 450 min, pH 5.0; read-out: BIOCHEMICAL FRET BASED ASSAY pIC50 (converted)
MEASURED_QUANTITY: IC50 (nM)

COc1ncc(-c2cnccc2C)c2c1CC1(c3ccc(Cl)cc3F)N=C(N)SCC1C2 (single isomer, unassigned) [Compound 201]
6460

[A] COc1nccc2c1C[C@@]1(c3cc(O)ccc3F)N=C(N)SC[C@H]1C2 [Compound 183]
[B] COc1ncc(C#N)c2c1CC1(c3ccc(F)cc3F)N=C(N)SCC1C2 (racemic) [Compound 23]
Q: Would you mind telling me which has the lower recorded IC50 between A and B ? # answer = label of selected item
A: B

[A] COc1nccc2c1C[C@]1(c3cc(-c4cncnc4)ccc3F)N=C(N)SC[C@@H]1C2 [Compound 38]
[B] COc1ncc(-c2cccnc2)c2c1C[C@]1(c3ccc(F)cc3F)N=C(N)SC[C@@H]1C2 (racemic) [Compound 25]
Q: Would you mind telling me which has the lower recorded IC50 between A and B ? # answer = label of selected item
A: B
(B: 5.89 nM, A: 15.5 nM)

[a] NC1=N[C@@]2(c3ccccc3F)Cc3c(cc[nH]c3=O)C[C@H]2CS1 (racemic) [Compound 3]
[b] COc1ncc(Br)c2c1C[C@]1(c3ccccc3F)N=C(N)SC[C@@H]1C2 (racemic) [Compound 16]
Q: Between the entries labelled a and b , which has a larger IC50 value on record? # answer = label of selected item
A: a

====

Molecular target: BACE2 (Homo sapiens, UniProt Q9Y5Z0)
Construct: recombinant BACE2 protein in a final concentration of 0.4 μg/ml
Sequence (Q9Y5Z0 63-518): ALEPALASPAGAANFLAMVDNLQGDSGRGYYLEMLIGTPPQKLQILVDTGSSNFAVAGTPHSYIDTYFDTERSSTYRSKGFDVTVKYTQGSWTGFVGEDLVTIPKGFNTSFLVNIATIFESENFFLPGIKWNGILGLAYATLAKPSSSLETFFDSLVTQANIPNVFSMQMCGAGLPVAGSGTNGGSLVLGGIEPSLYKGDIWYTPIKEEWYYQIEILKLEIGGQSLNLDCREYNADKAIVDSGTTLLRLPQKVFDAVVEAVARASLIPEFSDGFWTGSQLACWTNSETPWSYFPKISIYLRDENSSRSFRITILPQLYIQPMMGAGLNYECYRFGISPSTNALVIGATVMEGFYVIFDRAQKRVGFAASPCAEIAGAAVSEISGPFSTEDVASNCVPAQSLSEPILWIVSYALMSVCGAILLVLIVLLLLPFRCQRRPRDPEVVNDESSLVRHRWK
Assay: BACE2 biochemical FRET based assay
Details: recombinant BACE2 0.4 μg/ml, 10 μM substrate, 450 min, pH 5.0
MEASURED_QUANTITY: BIOCHEMICAL FRET BASED ASSAY pIC50

COc1ncc(-c2cnccc2C)c2c1C[C@]1(c3cc(-c4cncnc4)ccc3F)N=C(N)SC[C@@H]1C2 (mixture of isomers)
5.78
COc1ncc(-c2ccccc2Cl)c2c1C[C@]1(c3ccc(F)cc3F)N=C(N)SC[C@@H]1C2
7.35
COc1ncc(-c2ccccc2)c2c1C[C@]1(c3ccc(F)cc3F)N=C(N)SC[C@@H]1C2
8.43
COc1ncc(-c2cc(Cl)ccc2C)c2c1C[C@]1(c3ccc(F)cc3F)N=C(N)SC[C@@H]1C2
6.9
COc1ncc(-c2cc(C#N)ccc2Cl)c2c1C[C@]1(c3ccc(F)cc3F)N=C(N)SC[C@@H]1C2
6.84
COc1ncc(Oc2ccccn2)c2c1C[C@]1(c3ccc(F)cc3F)N=C(N)SC[C@@H]1C2
7.55

====

Target: BACE2 (Homo sapiens)
Construct: recombinant BACE2 protein in a final concentration of 0.4 μg/ml
Test: BACE2 biochemical FRET based assay
Conditions: recombinant BACE2 0.4 μg/ml, 10 μM substrate, 450 min, pH 5.0; read-out: BIOCHEMICAL FRET BASED ASSAY pIC50 (converted)
MEASURED_QUANTITY: IC50 (µM)

COc1ncc(-c2ccn[nH]2)c2c1C[C@]1(c3ccc(F)cc3F)N=C(N)SC[C@@H]1C2 (racemic) [Compound 29]
0.0355

[I] COc1nccc2c1C[C@]1(c3cc(-c4cncnc4)ccc3F)N=C(N)SC[C@@H]1C2 [Compound 38]
[II] NC1=N[C@@]2(c3ccccc3F)Cc3c(cc[nH]c3=O)C[C@H]2CS1 (racemic) [Compound 3]
[III] COc1ncc(Br)c2c1CC1(c3ccc(F)cc3F)N=C(N)SCC1C2 (racemic) [Compound 17]
[IV] COc1nccc2c1CC1(c3cc4c(cc3F)OCC(=O)N4)N=C(N)SCC1C2 (racemic) [Compound 15]
Q: Ascending sort, IC50. Enter labels, ranked according to the request.
A: III, IV, I, II

====

Biological target: BACE1 (Homo sapiens, UniProt P56817)
Construct: recombinant BACE1 protein in a final concentration of 0.04 μg/ml
Sequence (P56817 46-501): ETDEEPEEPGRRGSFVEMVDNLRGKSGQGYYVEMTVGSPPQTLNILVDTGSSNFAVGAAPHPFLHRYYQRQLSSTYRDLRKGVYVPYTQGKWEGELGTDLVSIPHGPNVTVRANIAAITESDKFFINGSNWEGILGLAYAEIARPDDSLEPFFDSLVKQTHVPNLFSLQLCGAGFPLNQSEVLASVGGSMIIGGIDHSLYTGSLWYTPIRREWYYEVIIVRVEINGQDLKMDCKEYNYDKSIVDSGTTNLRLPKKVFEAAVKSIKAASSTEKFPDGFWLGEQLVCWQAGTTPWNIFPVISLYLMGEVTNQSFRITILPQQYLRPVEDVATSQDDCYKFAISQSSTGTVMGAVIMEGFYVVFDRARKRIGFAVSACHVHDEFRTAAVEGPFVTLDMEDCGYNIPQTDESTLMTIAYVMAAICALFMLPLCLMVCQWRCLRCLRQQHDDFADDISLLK
Assay: BACE1 biochemical FRET based assay
Conditions: recombinant BACE1 0.04 μg/ml, 20 μM substrate, 450 min, pH 5.0; read-out: BIOCHEMICAL FRET BASED ASSAY pIC50 (converted)
MEASURED_QUANTITY: IC50 (nM)

Use these answered entries as a reference point.
CCOc1ncc(C2CC2)c2c1CC1(c3ccc(F)cc3F)N=C(N)SCC1C2 (racemic)
135
COc1ncc(Br)c2c1CC1(c3ccc(F)cc3F)N=C(N)SCC1C2 (racemic)
30.9
COc1nccc2c1C[C@]1(c3cc(-c4cncc(C#N)c4)ccc3F)N=C(N)SC[C@@H]1C2
42.7
COc1nccc2c1C[C@]1(c3ccccc3)N=C(N)SC[C@@H]1C2 (racemic)
398
COc1ncc(-c2ccn[nH]2)c2c1C[C@]1(c3ccc(F)cc3F)N=C(N)SC[C@@H]1C2 (racemic)
35.5
COc1ncc(-c2ccncc2C)c2c1CC1(c3ccc(F)cc3F)N=C(N)OCC1C2 (racemic)
50.1

[P] COc1ncc(-c2cccnc2)c2c1C[C@]1(c3ccc(F)cc3F)N=C(N)OC[C@@H]1C2 (racemic)
[Q] COc1nccc2c1C[C@@]1(c3ccc(F)cc3F)N=C(N)SC[C@H]1C2
Q: Between the entries labelled P and Q , which has a larger IC50 value on record? # answer = label of selected item
A: Q
